- Tested on: Human Dermal Fibroblast (HDF)
- measurement notes: MTT cytotoxicity assay, normal cells
- Type: cell-based
- settings: read-out: IC50 HDF
measurement kind: IC50

Entry C=C[C@]1(C)CCC2[C@@]3(C)CCCC(C)(C)C3CC[C@@]2(C)O1 (stereo partly drawn) [Compound 1, 13-epi manoyl oxide] ; IC50 = 338 µM

###

- Test system: Human Dermal Fibroblast (HDF)
- measurement notes: MTT cytotoxicity assay, normal cells
- Format: cell-based
- settings: MTT assay, normal cells, isolated compounds, read-out: IC50 HDF
pIC50: −log10 of the molar value.
# maps each entry to its pIC50

Recorded pIC50, per entry:
Record COc1ccc(-c2cc(=O)c3c(O)cc(OC)cc3o2)cc1 [Compound 3, 5-hydroxy-7,4'-dimethoxyflavone] . Reported pIC50: < 3.01

Query C=C[C@]1(C)CCC2[C@@]3(C)CCCC(C)(C)C3[C@@H](O)C[C@@]2(C)O1 (stereo partly drawn) [Compound 2, 6α-hydroxy-13-epimanoyl oxide] yields pIC50 of < 3.19

Continuing:
Summary for this compound, COc1cc([C@@H]2c3cc4c(cc3[C@@H](O[C@@H]3O[C@@H]5CO[C@@H](C)O[C@H]5[C@H](O)[C@H]3O)[C@H]3COC(=O)[C@H]23)OCO4)cc(OC)c1O [Etoposide, reference compound] : pIC50 is 3.80

Cited source for all entries: paper PMC7814726
